Tested on: Plasmodium falciparum NF54
Test: growth inhibition relative to untreated control; higher = more inhibition
Details: 5 µM; MM + chorismate end-products (CM screening medium); 72 h
observed-property: growth inhibition

{"columns": ["compound", "observed-property", "reported-result"],
 "data": [
  ["Nc1ncnc2c1c(-c1cnc3ccccc3c1)nn2CC1CCNCC1", "growth inhibition", "< 0%"],
  ["COc1ccc(CCN2CCC(NCc3cccc(N(C)C)c3)CC2)cc1", "growth inhibition", "> 100%"],
  ["CC1CS(=O)(=O)CCN1/N=C/c1ccc([N+](=O)[O-])o1 (stereo not given)", "growth inhibition", "< 0%"],
  ["CCOC(=O)NC(=O)c1ccsc1NC(=O)c1nc2ccccc2s1", "growth inhibition", "< 0%"],
  ["O=C(Nc1ccc(C(F)(F)F)c(C(F)(F)F)c1)c1cc(Cl)ccc1O", "growth inhibition", "> 100%"]
]}

Reference for the values: the supplement of paper PMC6763611
